# TESTED ON: Inadl_8, Q8NI35
# Sequence (Q8NI35 1425-1530): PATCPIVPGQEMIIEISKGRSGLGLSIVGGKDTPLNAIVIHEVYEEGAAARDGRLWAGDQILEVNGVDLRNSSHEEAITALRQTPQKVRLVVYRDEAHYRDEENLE
# EXPERIMENT: holdup assay
# Parameters: key: below the threshold = too weak to quantify, mostly under pKd 3.1 to 4
# RUN CONDITIONS: plain residues with an end cap or a label only (N-terminal biotin on a linker: ado-ado)

BINDER: CLREWCDAFL [BANF1, O75531]
pKd: below the threshold
//
BINDER: EALLQMESVA [CAVIN3, Q969G5]
pKd: below the threshold
//
BINDER: KKAPTNEFYA [SDC4, P31431]
pKd: below the threshold
